experiment: solubility in dimethylsulfoxide; assay type: physicochemical; settings: organic solvent or mixture
Where a name gives a salt, the structure may show the parent alone.
Measured attribute: solubility

Prompt: // Input: CCCCC(CC)CNC(=N)NC(=N)NCCCCCCNC(=N)NC(=N)NCC(CC)CCCC (stereo not shown) [AD, alexidine dihydrochloride] . Output its solubility only.
Completion: ≥ 10000 µg/mL

Just for reference, patent US11510943B2 is where these values come from.
